Hello, the source for this data is PubChem BioAssay, in case you need it.

z-score by entry:
Test: splicing luciferase reporter signal modulators, primary screen, spliceosome inhibition project, cell-based, HEK293, splice +/- reporter (AID 1101);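 note: HEK293 cells carrying a splicing-competent luciferase reporter gene; test concentration not given here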
Conditions: luminescence, 24 h, higher = more signal, called active from +8 up or from −8 down
// keep it numeric: no unit symbol after the value

Smiles Repr | Metric Name | Value Reported
COCCOC(=O)N1C(=O)[C@@]2(c3cc(C#CCNC(N)=O)ccc31)[C@H](C(=O)Nc1nc3ccccc3s1)[C@H]1C(=O)O[C@H](c3ccccc3)[C@H](c3ccccc3)N1[C@@H]2c1ccc(OCCO)cc1 | z-score | -0.239
CC(C)N1C(=O)C[C@@](C(=O)NCC(F)(F)F)(c2ccc([N+](=O)[O-])cc2)[C@H]1c1ccc(CO)cc1 | z-score | -0.259
COCCOC(=O)N1C(=O)[C@@]2(c3cc(C#CCC(C(=O)OC)C(=O)OC)ccc31)[C@H](c1ccccc1OCCO)N1[C@H](c3ccccc3)[C@H](c3ccccc3)OC(=O)[C@H]1[C@@H]2C(=O)NC[C@H](O)c1ccccc1 | z-score | 3.84

**Q:** Determine from records and report z-score for COc1ccc([Si](C)(C)[C@H]2[C@H](CC(=O)N3Cc4ccccc4C[C@H]3CO)O[C@@]3(C(=O)N(Cc4cccc(N5CCC5=O)c4)c4ccccc43)[C@@H]2C)cc1
**A:** -0.205

**Q:** Determine from records and report z-score for CC(C)NC(=O)[C@@]1(c2ccc([N+](=O)[O-])cc2)CC(=O)N(C2CCCCC2)[C@@H]1c1ccc(CO)cc1I
**A:** 0.61

**Q:** Determine from records and report z-score for CC(C)C(=C=CC[C@H](O)c1ccc(OCCO)cc1)CCO
**A:** 0.0477

**Q:** Determine from records and report z-score for O=C1C[C@]2(c3ccc([N+](=O)[O-])cc3)C(=O)N(CC(F)(F)F)c3cc(CO)ccc3[C@H]2N1C1CCCCC1
**A:** 0.465
